tested on: 282377-053-R-J1-PDC complex spheroid viability; assay: Anticancer human tumor 282377-053-R-J1-PDC patient-derived colon adenocarcinoma cell line growth inhibition [RAS]; settings: curve of first compound; second compound 0.3 µM
pIC50: −log10 of the molar value.
experimental readout: pIC50

compound	meas value
Nc1ccn(C2OC(CO)C(O)C2(F)F)c(=O)n1 (centres undefined) + CCn1c(-c2cc(N3CCN(C)CC3)cnc2C(C)OC)c2c3cc(ccc31)-c1csc(n1)CC(NC(=O)C1CC1C)C(=O)N1CCCC(N1)C(=O)OCC(C)(C)C2	< 6.00
CC(C)n1nc(-c2ccc3oc(N)nc3c2)c2c(N)ncnc21 + CCn1c(-c2cccnc2C(C)OC)c2c3cc(ccc31)N1CCOC(CC(NC(=O)C(C(C)C)N(C)C(=O)C3(F)CCN(C(=O)C#CC(C)(C)N(C)C)CC3)C(=O)N3CCCC(N3)C(=O)OCC(C)(C)C2)C1	< 7.00
C[C@@H](NC(=O)c1ncnc(N)c1Cl)c1ncc(C(=O)Nc2cc(C(F)(F)F)c(Cl)cn2)s1 + CCn1c(-c2cccnc2C(C)OC)c2c3cc(ccc31)N1CCOC(CC(NC(=O)C(C(C)C)N(C)C(=O)C3(F)CCN(C(=O)C#CC(C)(C)N(C)C)CC3)C(=O)N3CCCC(N3)C(=O)OCC(C)(C)C2)C1	< 5.00

Would you kindly look at the next entry?
[ask] Would you kindly share the measured pIC50 for C=CC(=O)N1CCN(c2nc(OCC3CCCN3C)nc3c(F)c(-c4nc(N)cc(C)c4C(F)(F)F)c(Cl)cc23)C(C)C1 (centres undefined) + CCn1c(-c2cccnc2C(C)OC)c2c3cc(ccc31)N1CCOC(CC(NC(=O)C(C(C)C)N(C)C(=O)C3(F)CCN(C(=O)C#CC(C)(C)N(C)C)CC3)C(=O)N3CCCC(N3)C(=O)OCC(C)(C)C2)C1 ?
[reply] < 6.00

###

test system: 282377-053-R-J1-PDC complex spheroid viability; test: Anticancer human tumor 282377-053-R-J1-PDC cell line growth inhibition [RAS]; conditions: second compound 0.00949 µM; first compound 0.1 µM; stronger effect = lower value;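 note: spheroids exposed to agents for seven days before readout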;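 for viability, T/C: luminescence viability as percent of DMSO vehicle control wells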
For each entry below, report its viability, T/C value.
Give bare numbers, in %.

Provide viability, T/C for all items below, preserving their order.
1. C=CC(=O)N1CCN(c2nc(OCC3CCCN3C)nc3c(F)c(-c4nc(N)cc(C)c4C(F)(F)F)c(Cl)cc23)C(C)C1 (centres undefined) + CCn1c(-c2cccnc2C(C)OC)c2c3cc(ccc31)N1CCOC(CC(NC(=O)C(C(C)C)N(C)C(=O)C3(F)CCN(C(=O)C#CC(C)(C)N(C)C)CC3)C(=O)N3CCCC(N3)C(=O)OCC(C)(C)C2)C1
2. CC1(O)CCCC1n1c(=O)c(C(F)F)cc2cnc(NC3CCN(S(C)(=O)=O)CC3)nc21 (centres undefined) + CCn1c(-c2cc(N3CCN(C)CC3)cnc2C(C)OC)c2c3cc(ccc31)-c1csc(n1)CC(NC(=O)C1CC1C)C(=O)N1CCCC(N1)C(=O)OCC(C)(C)C2
3. CC(C)NCC(C(=O)N1CCN(c2ncnc3c2C(C)CC3O)CC1)c1ccc(Cl)cc1 (centres undefined) + CCn1c(-c2cc(N3CCN(C)CC3)cnc2C(C)OC)c2c3cc(ccc31)-c1csc(n1)CC(NC(=O)C1CC1C)C(=O)N1CCCC(N1)C(=O)OCC(C)(C)C2
4. C=CC(=O)Nc1cc(Nc2nccc(-c3cn(C)c4ccccc34)n2)c(OC)cc1N(C)CCN(C)C + CCn1c(-c2cccnc2C(C)OC)c2c3cc(ccc31)N1CCOC(CC(NC(=O)C(C(C)C)N(C)C(=O)C3(F)CCN(C(=O)C#CC(C)(C)N(C)C)CC3)C(=O)N3CCCC(N3)C(=O)OCC(C)(C)C2)C1

[reply]
1: 88.7; 2: 115; 3: 119; 4: 84.8

Reference source for all entries: PubChem BioAssay AID2060905
